- PROCEDURE_TEXT: Clinical trial 005, rifalazil concentration in plasma of tuberculosis patients
- Format: in vivo, human
- RUN_CONDITIONS: human, plasma, INH + 25 mg KRM; Hour 24; read-out: Rifalazil Concentration in Plasma, Min
READOUT_TYPE: concentration at 24 h (ng/mL)
Give the value, in units of ng/mL, as a plain number.

Which concentration at 24 h value is on record for `CO[C@H]1/C=C/O[C@@]2(C)Oc3c(C)c(O)c4c(=O)c(c5oc6cc(N7CCN(CC(C)C)CC7)cc(O)c6nc-5c4c3C2=O)NC(=O)/C(C)=C\C=C\[C@H](C)[C@H](O)[C@@H](C)[C@@H](O)[C@@H](C)[C@H](OC(C)=O)[C@@H]1C` ?
4.3

Origin of values: patent US7772228B2
